In this section, each of the molecules is paired with its reported melting point.

>  <molecule>
COc1cc2c(cc1OC)[C@H]1CCCC[C@H]1N=C2c1cccc(C(=O)NC(=N)N2CCOCC2)c1

>  <melting point>
187 to 188 °C

$$$$
>  <molecule>
CCN(CC)C(=N)NC(=O)c1ccc(C2=N[C@@H]3CCCC[C@@H]3c3cc(OC)c(OC)cc32)cc1

>  <melting point>
132 to 135 °C

$$$$
>  <molecule>
COc1cc2c(cc1OC)C1CCCCC1N=C2c1ccc(C(=O)NC(=N)N2CCCC2)cc1 (stereo not drawn)

>  <melting point>
126 °C

$$$$
>  <molecule>
COc1cc2c(cc1OC)C1CCCCC1N=C2c1ccc(C(=O)NC(=N)N2CCN(C)CC2)cc1 (stereo not drawn)

>  <melting point>
133 °C

$$$$
>  <molecule>
CCN(CC)C(=N)NC(=O)c1cccc(C2=NC3CCCCC3c3cc(OC)c(OC)cc32)c1 (stereo not drawn)

>  <melting point>
89 to 91 °C

$$$$
>  <molecule>
COc1cc2c(cc1OC)[C@H]1CCCC[C@H]1N=C2c1ccc(C(=O)NC(=N)n2nc(C)cc2C)cc1

>  <melting point>
179 to 180 °C

$$$$
